measured target: Orexin/Hypocretin receptor type 1 (Homo sapiens) (UniProt O43613)
Sequence (O43613 whole entry, looked up): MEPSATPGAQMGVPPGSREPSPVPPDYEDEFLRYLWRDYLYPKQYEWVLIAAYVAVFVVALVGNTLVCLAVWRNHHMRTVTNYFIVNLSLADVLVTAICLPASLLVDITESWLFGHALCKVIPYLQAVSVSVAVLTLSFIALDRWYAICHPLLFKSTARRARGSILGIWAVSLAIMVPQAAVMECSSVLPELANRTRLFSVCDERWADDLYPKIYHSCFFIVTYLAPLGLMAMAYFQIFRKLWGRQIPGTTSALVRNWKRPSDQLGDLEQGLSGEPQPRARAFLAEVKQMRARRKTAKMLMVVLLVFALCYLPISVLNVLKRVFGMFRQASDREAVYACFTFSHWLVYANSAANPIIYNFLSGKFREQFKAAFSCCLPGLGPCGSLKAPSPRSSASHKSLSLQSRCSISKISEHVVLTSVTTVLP
protocol details: HCRTR1 blockers, calcium flux retest – fluorescence, CHO/OX1R cells, Fluo-8 calcium, orexin A, confirmation (AID 492963);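 note: 0% = agonist challenge alone and 100% = reference antagonist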
test conditions: orexin A calcium Fluo-8 fluorescence, at 5 µM, hits give high values
Hit rate of the full screen: of about 1,100 compounds, about 420 (38%) were called active. Not all results are given here.
Label n if inhibition falls below 40%; label y in every other case.

CCOc1cc(/C=C(\C#N)c2nc(-c3cccs3)c(NC(C)=O)s2)ccc1O :: n
CCOC(=O)N1CCN(c2cc(C)c([N+](=O)[O-])cc2F)CC1 :: n
Cc1cc(-c2ccc(C)c(S(=O)(=O)NC(C)Cc3ccco3)c2)on1 (stereo unspecified) :: n

For this molecule, is measured inhibition 40% or higher? `COc1cccc(C(=O)NC(=O)Nc2nc(C)cc(C(F)(F)F)n2)c1`
n

For this molecule, is measured inhibition 40% or higher? O=C(OC1CCOC1=O)c1ccc(-c2nc3ccccc3s2)s1 (stereo unspecified)
y

For this molecule, is measured inhibition 40% or higher? `c1coc(CNc2ncnc3ccccc23)c1`
n

###

For each of the compounds below, state its inhibition.
measured target: Orexin/Hypocretin receptor type 1 (Homo sapiens)
protocol details: HCRTR1 blockers, calcium flux retest – fluorescence, CHO/OX1R cells, Fluo-8 calcium, orexin A, confirmation (AID 492963);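 note: 0% = agonist challenge alone and 100% = reference antagonist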
test conditions: orexin A calcium Fluo-8 fluorescence, at 5 µM, hits give high values
In all, about 1,100 compounds went through this assay and about 420 (38%) were called active. Not all results are given here.
Answers are plain numbers, in %.

Answered cases to consult:
C/C(N)=C(/C#N)C(=O)COC(=O)c1cc(-c2ccc(C)cc2)nc2ccccc12 :: -4.02
Cc1ccccc1S(=O)(=O)N1[C@@H](c2cccc(Cl)c2)C(C(=O)O)=CC[C@H]1c1ccc(Cl)cc1 :: 43.3
Cc1cccc(NC(=O)Nc2cccc(Oc3c(F)c(F)c(F)c(F)c3F)c2)c1 :: 12.1

Give inhibition for each listed item.
1. COc1cc(CN2CC(C)CC(C)C2)cc([N+](=O)[O-])c1O (stereo unspecified)
2. CCOc1ccc(/C=C/C(=O)OCC(=O)c2ccccc2OC)cc1OC

1: -4.4; 2: 36.1

Look at this compound and give its reported inhibition. `C=CCn1c(SCC(=O)Nc2nc3ccccc3s2)nnc1-c1ccccc1O`
48

###

measured target: Orexin/Hypocretin receptor type 1 (Homo sapiens) (UniProt O43613)
protocol details: HCRTR1 blockers, calcium flux retest – fluorescence, CHO/OX1R cells, Fluo-8 calcium, orexin A, confirmation (AID 492963);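 note: 0% = agonist challenge alone and 100% = reference antagonist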
test conditions: orexin A calcium Fluo-8 fluorescence, at 5 µM, hits give high values
Hit rate of the full screen: of about 1,100 compounds, about 420 (38%) were called active. The list is a sample of the results.
# binning rule on inhibition: band A = under 10%, band B = from 10% up to 20%, band C = 20% and over

Cc1cc(C)cc(NC(=O)C2CCCN2S(=O)(=O)c2cccc3cccnc23)c1 (stereo not given) :: band C

Kindly identify the class of `O=C1C=C(c2ccc(Cl)cc2)C(=O)N1Nc1ccccc1` .
band C

Kindly identify the class of COc1ccccc1CNC(=O)C1CCCN(S(=O)(=O)c2cccc3cccnc23)C1 (stereo not given) .
band A

Kindly identify the class of `COCc1c(C(=O)OCC(=O)Nc2ccc(OC(F)F)cc2)oc2ccccc12` .
band C

Kindly identify the class of `CC(=O)Nc1cccc(OCC(=O)/C=C2\N(C)c3ccccc3C2(C)C)c1` .
band B

Kindly identify the class of `S=C(NCc1ccc(Cl)cc1)NC12CC3CC(CC(C3)C1)C2` .
band B

Kindly identify the class of `CC(C)(C)NC(=O)CN(C(=O)c1csnn1)c1ccccc1-c1ccccc1` .
band B

Kindly identify the class of `O=C(Cn1[nH]c(=O)c2ccccc2c1=O)Nc1cccc(-c2nnc3n2CCCCC3)c1` .
band C

Kindly identify the class of `CCc1ccccc1OCC(=O)Nc1ccc(C)c(S(=O)(=O)N2CCCCCC2)c1` .
band A

Kindly identify the class of `NC(=O)C1=C[C@@H](c2ccc3c(c2)OCO3)C[C@@H](OCCCCO)O1` .
band A
